- target-or-system: Prolyl oligopeptidase (Homo sapiens)
- Sequence (P48147 1-710): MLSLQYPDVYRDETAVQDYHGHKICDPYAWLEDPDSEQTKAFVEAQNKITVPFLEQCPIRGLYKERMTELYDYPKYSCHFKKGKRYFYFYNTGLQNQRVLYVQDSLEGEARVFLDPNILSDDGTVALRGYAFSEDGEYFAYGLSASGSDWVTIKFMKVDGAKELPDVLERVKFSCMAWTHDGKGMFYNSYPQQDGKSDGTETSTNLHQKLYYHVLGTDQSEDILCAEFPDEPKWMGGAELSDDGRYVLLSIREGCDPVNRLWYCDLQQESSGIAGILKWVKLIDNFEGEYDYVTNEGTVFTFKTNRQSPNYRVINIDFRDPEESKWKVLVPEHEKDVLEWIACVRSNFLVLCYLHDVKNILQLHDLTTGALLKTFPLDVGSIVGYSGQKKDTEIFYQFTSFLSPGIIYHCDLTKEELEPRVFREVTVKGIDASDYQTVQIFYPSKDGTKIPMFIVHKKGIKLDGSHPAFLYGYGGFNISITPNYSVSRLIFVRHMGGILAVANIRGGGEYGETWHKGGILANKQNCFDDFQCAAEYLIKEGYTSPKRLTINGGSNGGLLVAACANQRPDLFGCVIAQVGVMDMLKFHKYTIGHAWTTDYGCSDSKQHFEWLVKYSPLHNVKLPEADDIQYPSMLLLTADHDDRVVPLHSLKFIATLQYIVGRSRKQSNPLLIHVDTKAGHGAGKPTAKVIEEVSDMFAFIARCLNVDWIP
// values below are reported pIC50
Units for pIC50: none; it is -log10 of a concentration expressed in mol/L.

// solved cases for pIC50 follow
- COC(=O)[C@H](Cc1ccc(OP(=O)(Oc2ccc(C[C@H](NC(C)=O)C(=O)OC)cc2)C2CCCN2C(=O)[C@@H]2CCCN2C(=O)OCc2ccccc2)cc1)NC(C)=O (mixture of isomers) [10l]: 4.70
- CC(=O)Nc1cccc(OP(=O)(Oc2cccc(NC(C)=O)c2)C2CCCN2C(=O)[C@@H]2CCCN2C(=O)OCc2ccccc2)c1 (mixture of isomers) [10d]: 5.00

Exam item: Return pIC50 for the following compound: CCOC(=O)CNC(=O)c1ccc(OP(=O)(Oc2ccc(C(=O)NCC(=O)OCC)cc2)C2CCCN2C(=O)[C@@H]2CCCN2C(=O)OCc2ccccc2)cc1 (mixture of isomers) [10n]
Marked response: 5.30
